tested on: OVCAR-5; assay: NCI tumour cell line growth inhibition, 48 h
Active and inactive are the calls of the source. No stated cut-off is given here; in the data, active = GI50 up to about 1.1 µM and inactive = higher.
Reported Property: GI50

Exam item: Entry `CCN(CC)CCNc1ccc([N+](=O)[O-])c2nc3ccc(OC)cc3c(N)c12` needs its GI50 filled in; supply it.
Marked response: 1.7 µM (inactive)

Exam item: Give the reported GI50 for this compound. `Cc1cc(N(CCC#N)CCC#N)ccc1C(=N/NC(=O)c1cc(Cl)ccc1O)/N=N/c1cccc(Cl)c1`
Marked response: 41.6 µM (inactive)

Exam item: Note GI50 for the compound shown: COc1ccccc1N1C(=O)/C(=C\c2cccc(Oc3ccccc3)c2)S(=O)(=O)C1c1ccccc1 (centres undefined)
Marked response: 89.9 µM (inactive)

Exam item: Provide measured GI50 value, entry: `C1CNOCCCONCCCNOCCCONC1`
Marked response: > 100 µM (inactive)

Exam item: Supply GI50 value. Item: `O=[N+]([O-])C(=C(Cl)Cl)C(Cl)=C(Cl)Cl`
Marked response: 2.02 µM (inactive)

Exam item: Report measured GI50; entry is `CO[C@@]12C[C@@H](C)[C@]34O[C@H]3C[C@]3(C)O[C@]43CC1=C(C)C(=O)O2`
Marked response: > 100 µM (inactive)

Exam item: Return value of GI50 for input `COP(=O)(OC)/C(=N\Nc1ccc([N+](=O)[O-])cc1)NCc1ccccc1` , no commentary.
Marked response: 40.3 µM (inactive)

Exam item: # return recorded GI50 for entry CC(=O)OC1CC2C(C)(C)OC(=O)CC(OC(C)=O)[C@]2(C)C2CCC3(C)C(=CCC3c3ccoc3)[C@]12C (some centres undefined)
Marked response: 32.8 µM (inactive)

Exam item: Output measured GI50 for this item: Cc1nc(C(N)=O)c(N)n1CCN1CCN(C(=O)CCCCCCCCCCNC2NC=Nc3[nH]cnc32)CC1 (centres undefined)
Marked response: > 100 µM (inactive)

* * *

system: HT-29; assay: NCI tumour cell line growth inhibition, 48 h
Active and inactive are the calls of the source. No stated cut-off is given here; in the data, active = GI50 up to about 1.1 µM and inactive = higher.
Entry note: the call must match one of Y (active), N (inactive)

Exam item: Kindly provide the recorded test outcome for the following compound: CC1CC(C)C2OC2(C)C[C@H](C)C(=O)NC(C)C(=O)N(C)[C@H](Cc2c(Br)[nH]c3ccccc23)C(=O)N[C@@H](c2ccc(O)cc2)CC(=O)O1 (stereo partly drawn)
Marked response: Y

Exam item: What outcome does the record of this test show for `COc1nc(N)c(C#N)c(C#N)c1C#N` ?
Marked response: N

Exam item: GET /call?item= C=CCOC1(CC=C)C(=O)OC2C(O)COC21O (stereo not drawn) returns the recorded outcome of this test.
Marked response: N

Exam item: Answer briefly: the call reported for S=C1c2ccccc2N=C(NC2CCCC2)C2CSCN12 (stereo not drawn) in this assay.
Marked response: N

Exam item: Check the results log: what was the call for CCOC(=O)CCC(NC(=O)c1ccc(Nc2nc3cc(C(F)(F)F)ccc3nc2C(=O)OCC)cc1)C(=O)OCC (stereo not drawn) ?
Marked response: N

Exam item: Short answer needed: outcome of this test for `CNC(=O)CNC(=O)CCC(=O)OC` ?
Marked response: N

Exam item: Hi team, can someone confirm the assay call for COC(=O)/C=C1/CCC2[C@@H](C(=O)CC3[C@]2(C)CCC[C@@]3(C)C(=O)OC)C1C (stereo partly drawn) ?
Marked response: N

Exam item: Hello, I am checking results. What call was entered for CC(=O)CC1(C)OC(N)=C(C#N)C1(C#N)C#N (stereo not drawn) ?
Marked response: N

Exam item: What is the recorded call for this compound in the test? CC1=NN(c2nc(N)nc(C(C)Cl)n2)C(C)(C)C1 (stereo not drawn)
Marked response: N

Exam item: For this compound, state the assay outcome: `O=C(O)CC(CC(=O)O)n1cccc1`
Marked response: N

Exam item: Check the results log: what was the call for `O=c1[nH]c(C2CCCCC2)nc2cc(Cl)ccc12` ?
Marked response: N

Exam item: What was the test verdict on COc1ccc2c(c1OC)C(C(Cl)(Cl)Cl)N1CCc3cc4c(cc3C1=C2)OCO4 (stereo not drawn) ?
Marked response: N

Exam item: What is the recorded call for this compound in the test? `CN(C)c1cccc2c(S(=O)(=O)NCCCNCCN)cccc12`
Marked response: N

Exam item: // return assay outcome for `COC(=O)/C=C/N1CC1`
Marked response: N

Exam item: So what was the verdict on CCOC(=O)CCC(NC(=O)c1ccc(Nc2nc3ccc(C(F)(F)F)cc3nc2-c2ccccc2)cc1)C(=O)OCC (stereo not drawn) in this test?
Marked response: N

Exam item: Test call for this compound, please: `O=[N+]([O-])/C=C/c1ccc(Cl)cc1Cl`
Marked response: N

Exam item: So what was the verdict on `CNS(=O)(=O)NNS(=O)(=O)c1ccc2ccccc2c1` in this test?
Marked response: N

Exam item: Could you kindly confirm the outcome this assay logged for `Cc1cc(N(CCC#N)CCC#N)ccc1C(=N/NC(=O)c1cc(Cl)ccc1O)/N=N/c1cccc(Cl)c1` ?
Marked response: N

Exam item: I'd appreciate the recorded outcome for Cc1cc(O)nc(NNC(C#N)c2ccccc2O)n1 (stereo not drawn) from this test.
Marked response: N

Exam item: Please state the recorded outcome for this compound: `O=S(=O)(N/C(=N\O)Nc1ccc(Cl)cc1)c1ccccc1`
Marked response: N

Exam item: Assay result, entry `COC[C@@H](/N=C/N1CCc2cc(OC)c(OC)cc2C1)C(C)(C)C` — outcome?
Marked response: N

Exam item: What call does the record list for O=C1CCCC1C(=O)Nc1ccc2ccccc2c1 (stereo not drawn) ?
Marked response: N

Exam item: // param item: `COc1ccc2[nH]c3nnc(N)c-3nc2c1` ; yields the recorded call
Marked response: N
